# System: Wolbachia pipientis
# ASSAY_METHOD_TEXT: Anti-Wolbachia Cell-Based Screen
# Type: functional
# Parameters: scale not given: in the data most compounds retested in dose-response had high values
# CONDITIONS: 5 µM
In all, about 48,000 compounds went through this assay and about 13,000 (27%) showed an effect of 50% or more. Some of the results follow.
METRIC_NAME: Percent Effect (%)
Express it in %; write the number only.

Task: Lookup: Percent Effect / Wolbachia pipientis / Cc1ncsc1C(=O)N(C)Cc1ccc(Br)o1
Output: 23.63

Task: Field entry: CC(C)c1cc(C(=O)O)nc2[nH]c(=O)[nH]c(=O)c12
Output: 113.5

Task: Field entry: CCc1cnc(CNC(=O)NCCCO)s1
Output: 97.97

====

# System: Wolbachia pipientis
# ASSAY_METHOD_TEXT: Anti-Wolbachia Cell-Based Screen
# Format: functional
# Design: scale not given: in the data most compounds retested in dose-response had high values
# CONDITIONS: 5 µM
The campaign covered roughly 48,000 compounds. About 13,000 (27%) showed an effect of 50% or more. Some of the results follow.
METRIC_NAME: Percent Effect
Could you write the number and then its unit?

Task: May I ask what Percent Effect has been recorded for CC(C)c1nc(-c2cc(C(=O)NCCN(C)C)c3ccccn23)cs1.O=C(O)C(F)(F)F ?
Output: -4.099%

Task: Field entry: CCCC(=O)Nc1cc(C(=O)NC(C)Cc2ccncc2)ccc1C (centres undefined)
Output: 2.128%

Task: Field entry: c1cnn(CC2CN(c3ncnc4sccc34)CCO2)c1 (centres undefined)
Output: -13.3%

Task: Field entry: Cc1ccc(C)c(C(NC2CCCC2)c2cccnc2)c1 (centres undefined)
Output: -43.53%

====

# Tested on: Wolbachia pipientis
# ASSAY_METHOD_TEXT: Anti-Wolbachia Cell-Based Screen
# Type: functional
# Design: scale not given: in the data most compounds retested in dose-response had high values
# CONDITIONS: 5 µM
Screen size: about 48,000 compounds; about 13,000 (27%) showed an effect of 50% or more. Some of the results follow.
Recorded Percent Effect by entry
Express it in %; write the number only.

- COMPOUND: "COCCN1CCO[C@H]2CN(Cc3cc[nH]n3)C[C@H]21.O=C(O)C(F)(F)F.O=C(O)C(F)(F)F"
  RESULT_VALUE: 90.56
- COMPOUND: "Cc1nn(C)c(Cl)c1C1CCCN1c1ncnc2[nH]ccc12 (centres undefined)"
  RESULT_VALUE: -15.05
- COMPOUND: "O=C(O)C(F)(F)F.O=C(O)C(F)(F)F.c1cc(CN2C[C@@H]3OCCN(CC4CC4)[C@@H]3C2)n[nH]1"
  RESULT_VALUE: 105.8

Task: May I ask what Percent Effect has been recorded for NC1C=C(C(F)(F)F)NC=C1c1ccc(Cl)cc1 (centres undefined) ?
Output: 102.6

Task: Field entry: COc1ccc(C2=CNC(C(F)(F)F)=CC2N)cc1 (centres undefined)
Output: 99.44

Task: Field entry: CC(C)OCCS(=O)(=O)c1ccccc1C#N
Output: -1.71

Task: Field entry: COCCN1CCO[C@H]2CN(C(=O)c3cccs3)C[C@H]21.O=C(O)C(F)(F)F
Output: -7.528

Task: Field entry: O=C(O)C(F)(F)F.O=C(O)C(F)(F)F.O=C(O)C(F)(F)F.c1coc(CN2C[C@@H]3OCCN(CCN4CCCC4)[C@@H]3C2)c1
Output: -5.292

Task: Field entry: O=C(O)C(F)(F)F.O=C(O)C(F)(F)F.c1csc(CN2C[C@@H]3OCCN(CC4CCCO4)[C@@H]3C2)c1 (some centres undefined)
Output: -7.067

====

# Tested on: Wolbachia pipientis
# ASSAY_METHOD_TEXT: Anti-Wolbachia Cell-Based Screen
# Assay type: functional
# Set-up: scale not given: in the data most compounds retested in dose-response had high values
# CONDITIONS: 5 µM
Out of some 48,000 compounds screened, about 13,000 (27%) showed an effect of 50% or more. This is one part of the list.
METRIC_NAME: Percent Effect (%)
Express it in %; write the number only.

Before answering, review these 3 worked examples.
- COMPOUND: "CCn1cc(CN2CCCN(C(=O)CCc3cccs3)CC2)cn1"
  Percent Effect / %: 101.9
- COMPOUND: "CCOc1ccccc1N(C)C(=O)c1ccc(Cl)cn1"
  Percent Effect / %: -0.6778
- COMPOUND: "CNS(=O)(=O)C1CCN(c2cc(C(C)C)nc(C(C)C)n2)C1 (stereo not given)"
  Percent Effect / %: 80.93

Task: May I ask what Percent Effect has been recorded for Cc1cc(N2CCN(C(=O)c3cc(Cl)c[nH]3)CC2)nc(C(C)C)n1 ?
Output: -12.01

Task: Field entry: C[C@@H]1CN(C(=O)C2CCOCC2)C[C@]12CCN(c1cccnc1)C2=O.O=C(O)C(F)(F)F
Output: -10.36

Task: Field entry: Cc1ccc(CN2C[C@@H]3CN(CC4CCOCC4)CCO[C@@H]3C2)s1.O=C(O)C(F)(F)F.O=C(O)C(F)(F)F
Output: -6.305

Task: Field entry: CNC(=O)CN1CCO[C@H]2CN(C(=O)C3CC3)C[C@H]21.O=C(O)C(F)(F)F
Output: 8.052

Task: Field entry: COCCN1C[C@@H]2CN(Cc3ccsc3)CCC[C@]2(C(=O)O)C1.O=C(O)C(F)(F)F.O=C(O)C(F)(F)F
Output: 4.755

Task: Field entry: CSCCC1c2nc[nH]c2CCN1Cc1cncn1C (stereo not given)
Output: -0.6967

Task: Field entry: CC(C)c1cc(N2CC[C@H](F)C2)n2nccc2n1
Output: -1.052

====

# Tested on: Wolbachia pipientis
# ASSAY_METHOD_TEXT: Anti-Wolbachia Cell-Based Screen
# Format: functional
# Set-up: scale not given: in the data most compounds retested in dose-response had high values
# CONDITIONS: 5 µM
Hit rate of the full screen: of about 48,000 compounds, about 13,000 (27%) showed an effect of 50% or more. The list shows a part of the results.
METRIC_NAME: Percent Effect (%)
Express it in %; write the number only.

Before answering, review these 2 worked examples.
- MOLECULE: "O=C1CCC2(CCCN(c3ncc(Cl)cc3F)C2)CN1CC1CC1 (stereo not drawn)"
  METRIC_NAME: "Percent Effect"
  RESULT_VALUE: -9.557
- MOLECULE: "CC(C)Oc1ccc(CNC(=O)C2CCS(=O)(=O)C2)cn1 (stereo not drawn)"
  METRIC_NAME: "Percent Effect"
  RESULT_VALUE: 23.43

Task: Lookup: Percent Effect / Wolbachia pipientis / COc1ccc(CNCCc2cccc(C(N)=O)c2)cc1O
Output: 8.083

Task: Field entry: CCc1ncc(CNCc2cccnc2N(C)C)cn1
Output: 101.7

Task: Field entry: CCc1nc(CC(=O)N2CCCC2c2c(C)nn(C)c2OC)cs1 (stereo not drawn)
Output: 118.7

Task: Field entry: CN(C)CC(C)(O)CNC(=O)Nc1sc2ccccc2c1Cl (stereo not drawn)
Output: 1.378

Task: Field entry: Nc1cc2c(nn1)CCN(C(=O)c1csc(-c3cccs3)n1)C2
Output: -8.113

Task: Field entry: Cc1nc(-c2cccs2)ccc1C(=O)N1CCN(CC(C)O)CC1 (stereo not drawn)
Output: 6.494

Task: Field entry: COc1cc(NCCNC(=O)c2ccc3[nH]ccc3c2)cc(OC)c1
Output: -37.35

Task: Field entry: COc1cccc2cc(CNC(C)(C)C(=O)N3CCC(O)CC3)oc12
Output: -3.796

Task: Field entry: CC(C(=O)N1CCOCC1)n1nc(-c2cccs2)cc(N)c1=O (stereo not drawn)
Output: 87.73

Task: Field entry: CCOC(=O)N1CC(=O)N(Cc2cccc(OC)c2OC)CC(O)C1 (stereo not drawn)
Output: 107.9

Task: Field entry: CC(C)c1ccc(OCCC(=O)N(C)CC(=O)N(C)C)cc1
Output: -12.7

Task: Field entry: CC(C)Nc1nc2c(c(NC3CC3)n1)CCN(C1CCOCC1)CC2
Output: -24.37

Task: Field entry: CCOc1ccc(S(=O)(=O)NCc2cccnc2N(C)C)cc1
Output: -21.99

Task: Field entry: Cc1oc(C)c(C(=O)NCc2cccnc2N(C)C)c1C
Output: -9.408

Task: Field entry: Cc1cn2c(CN(C)C(=O)c3nccnc3N)c(C)nc2s1
Output: -5.585

Task: Field entry: C[C@]1(O)CN(CCC(N)=O)CC[C@@H]1Oc1cccc(F)c1
Output: 109.4

Task: Field entry: COc1cccc(OC)c1CN1CC(=O)N(c2ccc(C)cc2)CC1C (stereo not drawn)
Output: 7.242

Task: Field entry: CC(C(=O)N1CCOCC1)N1CCc2cncnc2C1 (stereo not drawn)
Output: 24.13
